As shown below, each of these binders has a reported koff value.
- targetOrTestSystem: T1, Human PD-L1 Dimer (human, UniProt Q9NZQ7 19-239)
- T1 construct: also called hPD-L1 dimer; hPD-L1-hFc
- T1 sequence (Q9NZQ7 19-239): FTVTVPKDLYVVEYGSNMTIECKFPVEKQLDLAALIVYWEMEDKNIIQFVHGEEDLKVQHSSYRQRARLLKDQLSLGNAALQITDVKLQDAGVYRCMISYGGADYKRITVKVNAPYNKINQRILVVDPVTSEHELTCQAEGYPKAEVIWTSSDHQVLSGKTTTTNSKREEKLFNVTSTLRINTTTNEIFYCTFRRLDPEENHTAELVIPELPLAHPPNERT
- testProtocol: SPR (Biacore), mAb captured, 25C
- Experimental: Binding association and dissociation rate constants (kₐ and kd, respectively), equilibrium dissociation constants and dissociation half-lives (KD and t_{1/2}, respectively) of antigen binding to purified anti-PD-L1 monoclonal antibodies were determined using a real-time surface plasmon resonance biosensor assay on a Biacore 4000 instrument. […]
State just the number; it will be interpreted in s⁻¹.

>>> val("H1H9336P (antibody, human IgG1, V domains shown) VH: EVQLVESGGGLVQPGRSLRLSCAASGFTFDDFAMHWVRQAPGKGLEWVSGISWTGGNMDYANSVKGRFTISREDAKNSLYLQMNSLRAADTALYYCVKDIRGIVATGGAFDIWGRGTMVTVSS VL: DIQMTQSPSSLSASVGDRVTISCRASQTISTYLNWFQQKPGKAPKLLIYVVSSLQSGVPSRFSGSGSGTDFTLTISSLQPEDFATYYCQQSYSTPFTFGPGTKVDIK")
0.000109
>>> val("H2aM8314N (antibody, mouse IgG2, V domains shown, also called H2M8314N) VH: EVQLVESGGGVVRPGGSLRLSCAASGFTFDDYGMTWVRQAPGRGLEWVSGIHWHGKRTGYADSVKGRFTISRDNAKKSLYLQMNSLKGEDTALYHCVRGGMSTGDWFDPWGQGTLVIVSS VL: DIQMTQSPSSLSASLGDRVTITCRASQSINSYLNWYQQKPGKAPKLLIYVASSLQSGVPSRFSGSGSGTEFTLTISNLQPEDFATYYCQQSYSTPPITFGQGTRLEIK")
"1.35e-05"
>>> val("H2aM8321N (antibody, mouse IgG2, V domains shown, also called H2M8321N) VH: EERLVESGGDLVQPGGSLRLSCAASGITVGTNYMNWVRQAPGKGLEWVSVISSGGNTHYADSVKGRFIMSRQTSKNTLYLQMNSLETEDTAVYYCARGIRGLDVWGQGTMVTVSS VL: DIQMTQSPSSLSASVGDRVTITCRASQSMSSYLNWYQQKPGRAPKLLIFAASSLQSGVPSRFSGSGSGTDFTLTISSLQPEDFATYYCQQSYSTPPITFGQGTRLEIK")
0.000287
>>> val("H2aM8310N (antibody, mouse IgG2, V domains shown, also called H2M8310N) VH: QVQLVQSGAEVKKPGASVQVSCKASGYSFTGYYIHWVRQAPGQGLEWMGWINPNSGTKKYAHKFQGRVTMTRDTSIDTAYMILSSLISDDTAVYYCARDEDWNFGSWFDSWGQGTLVTVSS VL: DIVMTQTPLSSPVTLGQPASISCRSSQTLVHGDGNTYLSWIQQRPGQPPRLLIYKVSNQFSGVPDRFSGSGAGTDFTLKISRVEAEDVGLYFCMQATHFPITFGQGTRLEIK")
"5.71e-05"
>>> val("H2aM8317N (antibody, mouse IgG2, V domains shown, also called H2M8317N) VH: EVQLVESGGGLVQPGGSLRLSCAASGFTVGSNYMNWVRQAPGKGLEWVSVIYSGGSTYYADSVKGRFTISRLTSKNTLYLQMSSLRPEDTAVYYCARGIRGLDVWGQGTTVTVSS VL: DIQMTQSPSSLSASVGDRVTITCRASQTINIYLNWYQQKPGRAPRLLIYAASSLQSGVPSRFSGSGSGTDFTLTISSLQPEDFATYYCHQSYSTPPITFGQGTRLEIK")
0.00045
>>> val("H1H9329P (antibody, human IgG1, V domains shown) VH: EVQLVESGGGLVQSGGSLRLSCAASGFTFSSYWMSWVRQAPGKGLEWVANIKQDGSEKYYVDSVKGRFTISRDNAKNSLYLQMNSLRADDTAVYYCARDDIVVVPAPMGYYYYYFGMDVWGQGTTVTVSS VL: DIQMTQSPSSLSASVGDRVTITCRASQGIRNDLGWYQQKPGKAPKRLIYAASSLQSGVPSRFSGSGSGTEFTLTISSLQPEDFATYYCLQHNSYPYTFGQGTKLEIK")
0.000768

Switching to the query record.
Query: Would you kindly share the measured koff for H2aM8323N (antibody, mouse IgG2, V domains shown, also called H2M8323N) VH: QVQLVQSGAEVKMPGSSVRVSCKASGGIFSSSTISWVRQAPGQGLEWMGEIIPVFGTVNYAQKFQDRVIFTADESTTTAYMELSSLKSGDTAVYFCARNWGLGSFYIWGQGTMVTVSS VL: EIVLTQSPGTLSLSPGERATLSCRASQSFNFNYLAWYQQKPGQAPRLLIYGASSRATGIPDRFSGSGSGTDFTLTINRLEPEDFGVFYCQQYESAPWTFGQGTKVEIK ?
Response: 2.05e-05
